Target: T1, human LSAMP, expressed on HEK293 cells (human, UniProt Q13449 29-315)
T1 construct: also called BC033803
T1 sequence: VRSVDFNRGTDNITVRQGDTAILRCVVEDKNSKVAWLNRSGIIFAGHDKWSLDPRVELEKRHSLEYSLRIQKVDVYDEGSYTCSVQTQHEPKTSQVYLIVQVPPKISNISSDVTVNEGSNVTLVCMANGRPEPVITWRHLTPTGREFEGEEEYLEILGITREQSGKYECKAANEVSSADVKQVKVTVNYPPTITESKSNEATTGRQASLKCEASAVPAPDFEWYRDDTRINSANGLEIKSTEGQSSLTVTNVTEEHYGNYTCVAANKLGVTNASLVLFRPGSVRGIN
Assay: flow cytometry on transfected HEK293 cells, 2 ug/ml IgG
Answer each item with its documented fold fluorescence change versus mock (ZSgreen only) cells.
Number in fold, nothing else.

# binder Antibody MH12, IgG1null format (antibody, V domains shown, Tested as IgG1null (human IgG1 L234A, L235A, G237A) with human Ckappa; also called clone MH12) VH: EVQLVESGGGLVQPGGSLRLSCAASGFTFSSYGMSWVRQAPGKGLEWVANIWQDGSEKYVDSVKGRFTISRDNAKNSLYLQMNSLRAEDTAVYYCARAYGNYWYIDRWGQGTTVTVSS VL: DIVMTQSPDSLAVSLGERATINCKSSQSVTNDVAWYQQKPGQPPKLLINYAYHRFTGVPDRFSGSGYGTDFTLTISSLQAEDVAVYYCHQAYSTPYTFGQGTKLEIK ; its fold fluorescence change versus mock (ZSgreen only) cells = 4.1

Input Hu317 humanized anti-PD1 antibody, IgG1null format (antibody, V domains shown, Tested as IgG1null (human IgG1 L234A, L235A, G237A) with human Ckappa; also called hu317 IgG1) VH: QVQLQESGPGLVKPSETLSLTCTVSGFSLTSYGVHWIRQPPGKGLEWIGVIYADGSTNYNPSLKSRVTISKDTSKNQVSLKLSSVTAADTAVYYCARAYGNYWYIDVWGQGTTVTVSS VL: DIVMTQSPDSLAVSLGERATINCKSSESVSNDVAWYQQKPGQPPKLLINYAFHRFTGVPDRFSGSGYGTDFTLTISSLQAEDVAVYYCHQAYSSPYTFGQGTKLEIK . Output fold fluorescence change versus mock (ZSgreen only) cells: 1.5

Note to self: fold fluorescence change versus mock (ZSgreen only) cells recorded for Antibody MH4, IgG1null format (antibody, V domains shown, Tested as IgG1null (human IgG1 L234A, L235A, G237A) with human Ckappa; also called clone MH4) VH: EVQLVESGGGLVQPGGSLRLSCAASGFSLSSYGMSWVRQAPGKGLEWVAVIWQDGSTNYVDSVKGRFTISRDNAKNSLYLQMNSLRAEDTAVYYCARAYGNYWYIDRWGQGTTVTVSS VL: DIVMTQSPDSLAVSLGERATINCKSSQSVTNDVAWYQQKPGQPPKLLINYAYHRFTGVPDRFSGSGYGTDFTLTISSLQAEDVAVYYCHQAYSTPYTFGQGTKLEIK was 1.9
